These data points were gathered from patent US20240182465A1.

- Subject Of Test: HPK1 (Homo sapiens, UniProt Q92918)
- Experiment Notes: SLP76 phosphorylation assay (intracellular HPK1 inhibitory activity, p-SLP76 Ser376 sandwich ELISA)
- Condition Parameters: p-SLP76 IC50(nM), Jurkat, Clone E6-1 cells; 1 h compound pre-incubation, anti-CD3 beads stimulation 20 min; SLP76 phosphorylation at S376
- Sequence (Q92918 whole entry): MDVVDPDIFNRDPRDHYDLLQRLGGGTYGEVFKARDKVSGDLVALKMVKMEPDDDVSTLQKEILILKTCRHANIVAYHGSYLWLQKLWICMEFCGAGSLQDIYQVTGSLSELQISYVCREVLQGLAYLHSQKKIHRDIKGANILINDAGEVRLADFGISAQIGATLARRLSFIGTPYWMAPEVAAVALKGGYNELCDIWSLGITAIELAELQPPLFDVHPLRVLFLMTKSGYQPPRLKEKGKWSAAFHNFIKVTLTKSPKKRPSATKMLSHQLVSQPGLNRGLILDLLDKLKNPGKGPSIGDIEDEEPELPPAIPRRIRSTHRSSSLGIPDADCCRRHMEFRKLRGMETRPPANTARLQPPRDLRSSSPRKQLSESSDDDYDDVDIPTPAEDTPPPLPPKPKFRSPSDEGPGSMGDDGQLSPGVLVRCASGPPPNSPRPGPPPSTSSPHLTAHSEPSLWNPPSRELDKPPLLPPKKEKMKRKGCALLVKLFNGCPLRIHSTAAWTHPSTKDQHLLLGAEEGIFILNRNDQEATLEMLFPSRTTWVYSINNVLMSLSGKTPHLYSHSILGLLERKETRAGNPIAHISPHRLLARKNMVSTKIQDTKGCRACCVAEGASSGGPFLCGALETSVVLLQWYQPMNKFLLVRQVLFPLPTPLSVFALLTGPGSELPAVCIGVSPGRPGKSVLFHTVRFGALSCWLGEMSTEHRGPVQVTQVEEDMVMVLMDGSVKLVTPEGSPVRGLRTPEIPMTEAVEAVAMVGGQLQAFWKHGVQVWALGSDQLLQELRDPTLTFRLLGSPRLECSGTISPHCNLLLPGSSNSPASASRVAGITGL
Assay Endpoint: log10 of IC50 (log10 of the value in nM)

FC(F)(F)c1c[nH]c2ncc(-c3cc(C4CCCN4)c4cnccc4c3)cc12 (stereo not drawn)	3.00
Nc1ncc(-c2cc3c(c([C@@H]4CCCN4)c2)COCC3)cc1-c1nccs1	2.55
Cc1[nH]c2ncc(-c3cc4c(c([C@@H]5CCCN5)c3)CN(C(=O)[C@](C)(O)C(F)(F)F)CC4)cc2c1C	3.42
CC(C#N)c1c[nH]c2ncc(-c3cc4c(c([C@@H]5CCCN5)c3)COCC4)cc12 (stereo partly drawn)	1.89
Cc1c[nH]c2ncc(-c3cc4c(c([C@@H]5CCCN5)c3)CN(C(=O)c3cnn(C(C)C)c3C(F)(F)F)CC4)cc12	2.53
CC(=O)N1CCc2cc(-c3cnc4[nH]cc(C)c4c3)cc([C@@H]3CCCN3)c2C1 (single isomer, unassigned)	2.18
Cc1c[nH]c2ncc(-c3cc4c(c([C@@H]5CCCN5)c3)CN(C(=O)OC3CC3)CC4)cc12	2.45
Cc1c[nH]c2ncc(-c3cc4c(c([C@@H]5CCCN5)c3)CCN(C(=O)C(C)(C)C)C4)cc12	2.44
Cc1c[nH]c2ncc(-c3cc4c(c([C@@H]5CCCN5)c3)CN(C(=O)C3(O)CCOCC3)CC4)cc12	1.98
Cc1c[nH]c2ncc(-c3cc4c(c(C5CCN5)c3)COCC4)cc12 (stereo not drawn)	3.22
Cc1c[nH]c2ncc(-c3cc4c(c([C@@H]5CCCN5)c3)CN(CC3CCOCC3)CC4)cc12	2.61
c1cn2ccc(-c3c[nH]c4ncc(-c5cc6c(c([C@@H]7CCCN7)c5)COCC6)cc34)cc2n1	2.31
Cc1c[nH]c2ncc(-c3cc4c(c([C@@H]5CCCN5)c3)CN(C(=O)c3cnn(C5CC5)c3C)CC4)cc12	2.35
Cc1ccc(C(=O)N2CCc3cc(-c4cnc5[nH]cc(C)c5c4)cc([C@@H]4CCCN4)c3C2)nc1	2.32
Cc1ccc(C(=O)N2CCc3cc(-c4cnc5[nH]cc(C)c5c4)cc([C@@H]4CCCN4)c3C2)cn1	2.29

----------
Below, each entry is listed with its recorded log10 IC50.
- Subject Of Test: HPK1 (Homo sapiens, UniProt Q92918)
- Experiment Notes: SLP76 phosphorylation assay (intracellular HPK1 inhibitory activity, p-SLP76 Ser376 sandwich ELISA)
- Condition Parameters: p-SLP76 IC50(nM), Jurkat, Clone E6-1 cells; 1 h compound pre-incubation, anti-CD3 beads stimulation 20 min; SLP76 phosphorylation at S376
Where a name gives a salt, the structure may show the parent alone.
Assay Endpoint: log10 IC50 (log10 of the value in nM)

Cc1c[nH]c2ncc(-c3cc4c(c([C@@H]5CCCN5)c3)CCN(C(=O)C3CC3)C4)cc12	2.10
Cc1c[nH]c2ncc(-c3cc4c(c([C@@H]5CCCN5)c3)CN(C(=O)[C@H]3CCOC3)CC4)cc12	2.09
CN1CCc2cc(-c3cnc(N)c(-c4cnn(C)c4)c3)cc(C3CCCN3)c2C1 (centres unmarked)	3.55
COCC(=O)N1CCc2cc(-c3cnc4[nH]cc(C)c4c3)cc([C@@H]3CCCN3)c2C1	2.27
Cc1cc(C(=O)N2CCc3c(cc(-c4cnc5[nH]cc(C)c5c4)cc3[C@@H]3CCCN3)C2)cc(C)n1	2.21
Cc1c[nH]c2ncc(-c3cc4c(c([C@@H]5CCCN5)c3)CN(C(=O)CC3CCOCC3)CC4)cc12	2.56
O=C1OCc2ccc(-c3c[nH]c4ncc(-c5cc6c(c([C@@H]7CCCN7)c5)COCC6)cc34)cc21	2.50
Cc1c[nH]c2ncc(-c3cc4c(c([C@@H]5CCCN5)c3)CCN(C(=O)[C@@H]3CCOC3)C4)cc12	2.05
COCc1cc(N2CCc3cc(-c4cnc5[nH]cc(C)c5c4)cc([C@@H]4CCCN4)c3C2)ccn1	2.18
Cc1c[nH]c2ncc(-c3cc4c(c([C@@H]5CCCN5)c3)CN(CC(F)(F)F)CC4)cc12	2.82
Cc1c[nH]c2ncc(-c3cc4c(c(C5CCCN5)c3)COCC4)cc12 (centres unmarked)	2.58
Cc1c[nH]c2ncc(-c3cc4c(c([C@@H]5CCCN5)c3)CN(C(=O)N3CCC(F)(F)CC3)CC4)cc12	2.15
Cc1c[nH]c2ncc(-c3cc4c(c([C@@H]5CCCN5)c3)CN(C(=O)N3CCOC(C)(C)C3)CC4)cc12	1.97
Cc1c[nH]c2ncc(-c3cc4c(c([C@@H]5CCCN5)c3)COC3(CC3)C4)cc12	2.44
CO[C@H]1CCN(C(=O)N2CCc3cc(-c4cnc5[nH]cc(C)c5c4)cc([C@@H]4CCCN4)c3C2)C1	2.00
Cc1c[nH]c2ncc(-c3cc4c(c([C@@H]5CCCN5)c3)CN(C(=O)N3CCOC[C@H]3C)CC4)cc12	1.73
Cc1c[nH]c2ncc(-c3cc4c(c([C@@H]5CCCN5)c3)CN(C(=O)C3CCOC3)CC4)cc12 (some centres unmarked)	2.41
Cc1c[nH]c2ncc(-c3cc4c(c([C@@H]5CCCN5)c3)CN(CC3(O)CCOCC3)CC4)cc12	2.08
Cc1c[nH]c2ncc(-c3cc4c(c([C@@H]5CCCN5)c3)CN(C(=O)N3CCOCC3(C)C)CC4)cc12	2.01
Cc1c[nH]c2ncc(-c3cc4c(c([C@@H]5CCCN5)c3)CCN(C(=O)CC3CCOCC3)C4)cc12	2.16
CC(C)c1c[nH]c2ncc(-c3cc4c(c([C@@H]5COCCN5)c3)CN(C(=O)C3(O)CC3)CC4)cc12	2.05
Cc1c[nH]c2ncc(-c3cc4c(c([C@@H]5CCCN5)c3)COC4)cc12	2.87
Cc1c[nH]c2ncc(-c3cc4c(c([C@@H]5COCCN5)c3)CN(C(=O)[C@@](C)(O)C(F)(F)F)CC4)cc12	2.30
Cc1c[nH]c2ncc(-c3cc4c(c([C@@H]5CCCN5)c3)CN(C(=O)c3cnn(C(F)F)c3)CC4)cc12	2.24
Cc1ccc(-c2c[nH]c3ncc(-c4cc5c(c([C@@H]6CCCN6)c4)COCC5)cc23)cn1	2.96
Cc1c[nH]c2ncc(-c3cc4c(c(CNC(C)C)c3)COCC4)cc12	2.91
Nc1ncc(-c2cc3c(c(C4CCCN4)c2)COCC3)cc1-c1cn[nH]c1 (centres unmarked) [Compound Z93, formate]	2.64
CC(C)c1c[nH]c2ncc(-c3cc([C@@H]4CCCN4)c4cnccc4c3)cc12 (single isomer, unassigned)	2.79
Cc1c[nH]c2ncc(-c3cc4c(c([C@@H]5CCCN5)c3)CCN(CC3CCOCC3)C4)cc12	2.66

----------
Below, each entry is listed with its recorded IC50.
- Subject Of Test: HPK1 (Homo sapiens)
- Experiment Notes: HPK1 kinase activity assay (ADP-Glo)
- Condition Parameters: HPK1 Kinase activity IC50 (nM), 1 nM HPK1, 10 μM ATP, 0.1 μg/μL MBP
- Sequence (Q92918 1-346 limits assumed): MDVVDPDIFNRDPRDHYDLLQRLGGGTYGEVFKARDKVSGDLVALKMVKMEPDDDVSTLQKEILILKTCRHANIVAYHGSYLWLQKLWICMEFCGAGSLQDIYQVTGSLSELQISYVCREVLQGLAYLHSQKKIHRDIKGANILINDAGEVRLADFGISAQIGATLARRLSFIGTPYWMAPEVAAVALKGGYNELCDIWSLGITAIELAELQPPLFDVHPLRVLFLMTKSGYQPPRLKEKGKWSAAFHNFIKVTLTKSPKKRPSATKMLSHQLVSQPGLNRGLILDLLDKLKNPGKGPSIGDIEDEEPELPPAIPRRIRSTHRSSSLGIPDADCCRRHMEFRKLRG
Where a name gives a salt, the structure may show the parent alone.
Assay Endpoint: IC50 (nM)

CC(=O)N1CCc2cc(-c3cnc4[nH]cc(C)c4c3)cc(C3COCCN3)c2C1 (stereo not drawn) [Compound Z119]	1.54
Cc1c[nH]c2ncc(-c3cc4c(c([C@@H]5CCCN5)c3)CCN(C(=O)C3CCOCC3)C4)cc12 [Compound Z312]	0.47
N#CC1(c2c[nH]c3ncc(-c4cc5c(c([C@@H]6CCCN6)c4)COCC5)cc23)CC1 [Compound Z137]	0.37
Cc1nn(C2CC2)cc1C(=O)N1CCc2cc(-c3cnc4[nH]cc(C)c4c3)cc([C@@H]3CCCN3)c2C1 [Compound Z341]	1.09
C[C@](O)(C(=O)N1CCc2cc(-c3cnc4[nH]cc(Cl)c4c3)cc([C@@H]3CCCN3)c2C1)C(F)(F)F [Compound Z405]	0.23
CCN1Cc2c(cc(-c3cnc4[nH]cc(C)c4c3)cc2[C@@H]2CCCN2)CC1=O [Compound Z138]	0.81
CC(=O)N1CCc2cc(-c3cnc4[nH]cc(C)c4c3)cc(C3CCCN3)c2C1 (stereo not drawn) [Compound Z98]	0.9
Cc1cc(C(=O)N2CCc3cc(-c4cnc5[nH]cc(C)c5c4)cc([C@@H]4CCCN4)c3C2)cc(C)n1 [Compound Z214]	1.04
Cc1cc(C(=O)N2CCc3c(cc(-c4cnc5[nH]cc(C)c5c4)cc3[C@@H]3CCCN3)C2)cc(C)n1 [Compound Z279]	0.44
Cc1c[nH]c2ncc(-c3cc4c(c([C@@H]5CCCN5)c3)CN(CC(F)(F)F)CC4)cc12 [Compound Z131]	7.54
Cc1c[nH]c2ncc(-c3cc4c(c([C@@H]5CCCN5)c3)CN(C(=O)c3cnn(C)c3)C4)cc12 [Compound Z368, hydrochloride]	1.41
COCC(=O)N1Cc2cc(-c3cnc4[nH]cc(C)c4c3)cc([C@@H]3CCCN3)c2C1 [Compound Z261, hydrochloride]	2.63
Cc1c[nH]c2ncc(-c3cc4c(c([C@@H]5CCCN5)c3)CN(C(=O)c3ccnc(C(C)(C)O)c3)CC4)cc12 [Compound Z327]	0.33
Cc1c[nH]c2ncc(-c3cc4c(c([C@@H]5CCCN5)c3)CN(C(=O)c3cnn(C)c3)CC4)cc12 [Compound Z224]	1.11
Cc1ccncc1C#Cc1c[nH]c2ncc(-c3cc4c(c([C@@H]5CCCN5)c3)COCC4)cc12 [Compound Z237]	0.71
